Target: BTK (Homo sapiens (Human), UniProt Q06187)
Sequence (Q06187 393-659): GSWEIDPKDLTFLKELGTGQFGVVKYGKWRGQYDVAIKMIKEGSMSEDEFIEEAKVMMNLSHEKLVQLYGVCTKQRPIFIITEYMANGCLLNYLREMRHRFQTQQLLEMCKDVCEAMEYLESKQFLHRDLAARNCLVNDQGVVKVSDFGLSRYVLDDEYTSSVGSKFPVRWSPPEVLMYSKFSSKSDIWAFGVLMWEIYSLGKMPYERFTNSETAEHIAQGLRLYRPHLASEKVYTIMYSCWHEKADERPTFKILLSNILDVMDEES
Experiment: In vitro BTK kinase activity measured by trFRET
Details: recombinant human catalytic domain (aa 393-659), 0.01 mM ATP; read-out: Btk enzyme IC50
Counter-ions that a name gives are not always drawn.
measured property: IC50

Would you please look over these solved cases?
molecule	IC50
Cn1ccc(Nc2cc(C3CCCN(C#N)C3)cn3ncnc23)n1 (stereo not shown) [I.1.1]	100 to 1000 nM
C=CC(=O)N1CCC(c2cn3ncnc3c(Nc3ccc4c(c3)NC(=O)CCC4)n2)C1 (stereo not shown) [F.1]	< 100 nM
C=CC(=O)N[C@H]1CCC[C@H](c2cc(Nc3ccn(C)n3)c3ncnn3c2)C1 [Example F1.36]	100 to 1000 nM
C=CC(=O)N[C@H]1CC[C@@H](c2cc(Nc3ccc(N4CCOCC4)cn3)c3ncnn3c2)C1 (single isomer, unassigned) [Example 9 (1S,3R)]	100 to 1000 nM
C=CC(=O)N[C@H]1CC[C@@H](c2cc(Nc3cc4n(n3)CCOC4)c3ncnn3c2)C1 (single isomer, unassigned) [Example 8 (1S,3R)]	< 100 nM
C=CC(=O)N1CCC(c2cc(Nc3cc4n(n3)CCOC4)c3nccn3n2)C1 (stereo not shown) [F.1.41]	< 100 nM
C=CC(=O)N1CC[C@@H](c2cc(Nc3cc4n(n3)CCOC4)c3ncnn3c2)C1 [Example F1.33]	1000 to 50000 nM
C=CC(=O)NCc1cccc(-c2cn3ncnc3c(Nc3ccc(N4CCOCC4)cc3)n2)c1 [C.1.1]	1000 to 50000 nM
C=CC(=O)N1CCC(c2cc(Nc3ccc(OC)nn3)c3ncnn3c2)C1 (stereo not shown) [Example 2, trifluoroacetate]	100 to 1000 nM
C=CC(=O)N1CCC[C@@H](c2cc(Nc3cc4n(n3)CCOC4)c3ncnn3c2)C1 (single isomer, unassigned) [Example F1.24]	1000 to 50000 nM

IC50 for C=CC(=O)N1CC[C@H](c2cc(Nc3ccn(C)n3)c3ncnn3c2)C1 [F.1.38] is < 100 nM

Input C=CC(=O)N1CCC(c2cc(Nc3ccn(C)n3)c3ncnn3c2)C1 (stereo not shown) [Example 1] . Output IC50: < 100 nM

get_value(item= C=CC(=O)N[C@@H]1CC[C@H](c2cc(Nc3ccn(C)n3)c3ncnn3c2)C1 (single isomer, unassigned) [Example 7] , readout=IC50) returns < 100 nM

// sample C=CC(=O)NCc1cccc(-c2cn3ncnc3c(NC34CC(C3)C4)n2)c1 [F.1.1] , its IC50 was 100 to 1000 nM

The reported IC50 of the molecule Cn1cc(Nc2nc(C3CCN(C#N)C3)cn3ncnc23)cn1 (stereo not shown) [I.1.2] was 100 to 1000 nM

get_value(item= C=CC(=O)N1CCC(c2cn3ncnc3c(Nc3ccn(C)n3)n2)C1 (stereo not shown) [F.1.23] , readout=IC50) returns 1000 to 50000 nM
